Molecular target: Tyrosine-protein kinase Lck (Homo sapiens)
Test: In vitro binding to p56 Lck SH2 domain
This listing pairs molecules with measured ID50.

Solved entries (count: 5):
Molecule: N[C@@H](Cc1ccc(OP(=O)(O)O)cc1)C(=O)O
Readout value: 5000 µM
--
Molecule: CC(=O)N1CC2Cc3cc(O)ccc3C(C)(C2)C1 (racemic)
Readout value: > 6000 µM
--
Molecule: CC(=O)N[C@H](C(N)=O)[C@H]1CCc2cc(OP(=O)(O)O)ccc21 (racemic)
Readout value: 1500 µM
--
Molecule: CC(=O)N1CC2Cc3cc(OP(=O)(O)O)ccc3C(C)(C2)C1 (racemic)
Readout value: > 3000 µM
--
Molecule: CC(=O)N[C@@H](Cc1ccc(OP(=O)(O)O)cc1)C(N)=O
Readout value: > 3000 µM

Write down the reported ID50 of CC(=O)N[C@H](C(N)=O)[C@@H]1CCc2cc(OP(=O)(O)O)ccc21 (racemic) , test system: Tyrosine-protein kinase Lck (Homo sapiens). > 3000 µM

* * *

Biological target: UniProt:P12931
Test: In vitro binding to Src SH2 domain
Reported property: ID50 (µM)

Compound: CC(=O)N[C@@H](Cc1ccc(OP(=O)(O)O)cc1)C(N)=O
ID50 [µM]: 1000
--
Compound: N[C@@H](Cc1ccc(OP(=O)(O)O)cc1)C(=O)O
ID50 [µM]: 3500
--
Compound: CC(=O)N1CC2Cc3cc(OP(=O)(O)O)ccc3C(C)(C2)C1 (racemic)
ID50 [µM]: 900

* * *

Test: In vitro binding to p85-C SH2 domain
Reported property: ID50 (µM)

Compound: N[C@@H](Cc1ccc(OP(=O)(O)O)cc1)C(=O)O
ID50 / µM: 3500
--
Compound: CC(=O)N[C@H](C(N)=O)[C@H]1CCc2cc(OP(=O)(O)O)ccc21 (racemic)
ID50 / µM: 1500
--
Compound: CC(=O)N[C@@H](Cc1ccc(OP(=O)(O)O)cc1)C(N)=O
ID50 / µM: 1500
--
Compound: CC(=O)N[C@H](C(N)=O)[C@@H]1CCc2cc(OP(=O)(O)O)ccc21 (racemic)
ID50 / µM: 1500
--
Compound: CC(=O)N1CC2Cc3cc(OP(=O)(O)O)ccc3C(C)(C2)C1 (racemic)
ID50 / µM: 1300

* * *

Target: Proto-oncogene tyrosine-protein kinase Src (Homo sapiens) (UniProt P12931)
Sequence (P12931 2-536 limits assumed): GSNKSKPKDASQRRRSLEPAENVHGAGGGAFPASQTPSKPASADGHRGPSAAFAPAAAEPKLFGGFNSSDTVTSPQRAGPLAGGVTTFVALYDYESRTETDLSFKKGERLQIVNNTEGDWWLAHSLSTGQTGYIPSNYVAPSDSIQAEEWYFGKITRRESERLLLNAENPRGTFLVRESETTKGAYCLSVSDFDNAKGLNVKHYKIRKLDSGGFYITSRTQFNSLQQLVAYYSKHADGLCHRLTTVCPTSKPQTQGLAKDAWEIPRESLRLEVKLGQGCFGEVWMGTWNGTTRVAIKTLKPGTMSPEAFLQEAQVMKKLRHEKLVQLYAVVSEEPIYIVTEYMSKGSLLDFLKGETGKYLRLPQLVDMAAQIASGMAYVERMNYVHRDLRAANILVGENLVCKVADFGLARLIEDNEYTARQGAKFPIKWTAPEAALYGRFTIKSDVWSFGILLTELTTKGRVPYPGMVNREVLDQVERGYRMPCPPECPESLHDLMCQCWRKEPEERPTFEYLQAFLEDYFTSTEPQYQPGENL
Assay: In vitro binding to Src SH2 domain
Reported property: ID50

Compound: CC(=O)N[C@H](C(N)=O)[C@@H]1CCc2cc(OP(=O)(O)O)ccc21 (racemic)
Target or system: Proto-oncogene tyrosine-protein kinase Src (Homo sapiens) (UniProt P12931)
ID50: > 3000 µM

Compound: CC(=O)N[C@H](C(N)=O)[C@H]1CCc2cc(OP(=O)(O)O)ccc21 (racemic)
Target or system: Proto-oncogene tyrosine-protein kinase Src (Homo sapiens) (UniProt P12931)
ID50: > 3000 µM

Consider now this further compound.
Would you kindly share the measured ID50 for CC(=O)N1CC2Cc3cc(O)ccc3C(C)(C2)C1 (racemic) ? > 6000 µM
